System: HEK293T (UBE3A T485A transfected, BAR Wnt reporter)
protocol.description: Wnt reporter firefly/Renilla luciferase ratio relative to plate median (fold (linear ratio)); higher = more Wnt/beta-catenin reporter activation
protocol.conditions: concentration: 10 uM; 24 h
The full ranking holds about 1,100 compounds; the median of “Wnt reporter firefly/Renilla luciferase ratio relative to plate median” is about 1.1, and the highest 2% start at about 1.6. What follows is part of a selection rich in the highest values, with near analogues and random picks from the rest.
assay.readout: Wnt reporter firefly/Renilla luciferase ratio

>  <molecule>
Cl.Clc1cc(Cl)c2c(c1)N=C1CCCCCN1C2

>  <assayed.target>
HEK293T (UBE3A T485A transfected, BAR Wnt reporter)

>  <reported>
1.13

$$$$
>  <molecule>
COc1cc2c3c(n(CCCn4ccnc4)c(=O)c2cc1OC)-c1cc2c(cc1C3=O)OCO2.Cl

>  <assayed.target>
HEK293T (UBE3A T485A transfected, BAR Wnt reporter)

>  <reported>
0.631

$$$$
>  <molecule>
CCc1ccc(CCOc2ccc(CC3SC(=O)NC3=O)cc2)nc1.Cl (configuration not stated) [Pioglitazone hydrochloride]

>  <assayed.target>
HEK293T (UBE3A T485A transfected, BAR Wnt reporter)

>  <reported>
0.903

$$$$
>  <molecule>
COc1cc(S(=O)(=O)[O-])c(C)cc1/N=N/c1c(O)ccc2cc(S(=O)(=O)[O-])ccc12.[Na+].[Na+]

>  <assayed.target>
HEK293T (UBE3A T485A transfected, BAR Wnt reporter)

>  <reported>
1.45

$$$$
>  <molecule>
O=C(N[C@@H](Cc1ccccc1)[C@@H](O)C(=O)N1C[C@@H](O)[C@@H](O)C1)c1cc2cc(Cl)ccc2[nH]1 [Ingliforib]

>  <assayed.target>
HEK293T (UBE3A T485A transfected, BAR Wnt reporter)

>  <reported>
0.888

$$$$
>  <molecule>
CCNc1ccccc1 [N-Ethylaniline]

>  <assayed.target>
HEK293T (UBE3A T485A transfected, BAR Wnt reporter)

>  <reported>
0.96

$$$$
>  <molecule>
C/C=C/c1ccc(OC)cc1 [(E)-Anethole]

>  <assayed.target>
HEK293T (UBE3A T485A transfected, BAR Wnt reporter)

>  <reported>
1.15

$$$$

----------
Test system: HEK293T (UBE3A T485A transfected, BAR Wnt reporter)
protocol.description: Wnt reporter firefly/Renilla luciferase ratio relative to plate median (fold (linear ratio)); higher = more Wnt/beta-catenin reporter activation
protocol.conditions: concentration: 10 uM; 24 h
Over roughly 1,100 compounds, “Wnt reporter firefly/Renilla luciferase ratio relative to plate median” has its median near 1.1; the highest 2% begin near 1.6. This is one part of a sample in which the highest values are shown more often than they occur.
assay.readout: Wnt reporter firefly/Renilla luciferase ratio

>  <molecule>
O=C(NS(=O)(=O)/C=C/c1cccs1)c1ccc(F)cc1Br

>  <reported>
0.456

$$$$
>  <molecule>
CCCCCCC(=O)OCC [Ethyl heptanoate]

>  <reported>
1.47

$$$$
>  <molecule>
Oc1ccc(C(c2ccc(O)cc2)C(Cl)(Cl)Cl)cc1 [2,2-Bis(4-hydroxyphenyl)-1,1,1-trichloroethane]

>  <reported>
0.541

$$$$
>  <molecule>
CC(=O)OCCOCCOCCOC(C)=O [Triethylene glycol diacetate]

>  <reported>
1.07

$$$$
>  <molecule>
CCCCCOC(C)=O [Pentyl acetate]

>  <reported>
1.4

$$$$
>  <molecule>
CC[C@H](C)[C@@H](C(=O)O)n1sc2ccccc2c1=O

>  <reported>
0.684

$$$$
>  <molecule>
CC(=O)OCCC(C)C [3-Methylbutyl acetate]

>  <reported>
1.03

$$$$
>  <molecule>
NS(=O)(=O)c1cc2c(cc1Cl)NCNS2(=O)=O [Hydrochlorothiazide]

>  <reported>
1.12

$$$$
>  <molecule>
CS(=O)(=O)O.Cc1cc(CCN2CCN(c3nsc4ccccc34)CC2)cc2c1NC(=O)CC2(C)C

>  <reported>
0.407

$$$$
>  <molecule>
OCCNCCO

>  <reported>
1.4

$$$$

----------
System: HEK293T (UBE3A T485A transfected, BAR Wnt reporter)
protocol.description: Wnt reporter firefly/Renilla luciferase ratio relative to plate median (fold (linear ratio)); higher = more Wnt/beta-catenin reporter activation
protocol.conditions: concentration: 0.1 uM; 24 h
The full ranking holds about 1,100 compounds; the median of “Wnt reporter firefly/Renilla luciferase ratio relative to plate median” is about 1.1, and the highest 2% start at about 1.6. This is one part of a sample in which the highest values are shown more often than they occur.
This section presents molecules with their documented Wnt reporter firefly/Renilla luciferase ratio values.
assay.readout: Wnt reporter firefly/Renilla luciferase ratio

>  <molecule>
CCCCCCC(C=O)=Cc1ccccc1

>  <reported>
0.942

$$$$
>  <molecule>
COc1ccc(C(=O)Nc2nc3ccccc3c(NCc3ccccc3)c2C#N)cc1

>  <reported>
1.27

$$$$
>  <molecule>
COc1ccc(CC(N)C(=O)NC2C(CO)OC(n3cnc4c(N(C)C)ncnc43)C2O)cc1 (stereo not drawn)

>  <reported>
0.78

$$$$
>  <molecule>
O=C(CCCCCCC(=O)Nc1ccccc1)NO [Vorinostat (SAHA)]

>  <reported>
1.23

$$$$
>  <molecule>
O=C([N-]S(=O)(=O)/C=C/c1ccccc1)c1ccc(F)cc1Cl.[Na+]

>  <reported>
1.15

$$$$
>  <molecule>
O=C(O)c1cc(/N=N/c2ccc(S(=O)(=O)Nc3ccccn3)cc2)ccc1O

>  <reported>
0.944

$$$$
>  <molecule>
CNC(=O)[C@H]1O[C@@H](n2cnc3c(NCc4cc(Cl)ccc4OCc4cc(C)no4)ncnc32)[C@H](O)[C@@H]1N

>  <reported>
0.941

$$$$
>  <molecule>
CCCCC(CC)CO (stereo not drawn)

>  <reported>
0.976

$$$$
>  <molecule>
COc1c(N2CC3CCCNC3C2)c(F)cc2c(=O)c(C(=O)O)cn(C3CC3)c12 (stereo not drawn)

>  <reported>
1.02

$$$$
>  <molecule>
CCCOC(=O)c1ccc(O)cc1

>  <reported>
1.46

$$$$
>  <molecule>
O=C(O)c1cccnc1

>  <reported>
1.02

$$$$
>  <molecule>
CCOC(=O)C(C)Oc1ccc(Oc2nc3ccc(Cl)cc3o2)cc1 (stereo not drawn)

>  <reported>
1.37

$$$$
>  <molecule>
CCCCCCCCOc1ccc(C(=O)c2ccccc2)c(O)c1

>  <reported>
1.12

$$$$
>  <molecule>
O=C(O)c1cn(C2CC2)c2cc(N3CCNCC3)c(F)cc2c1=O

>  <reported>
0.853

$$$$
>  <molecule>
CCCCOC(=O)c1ccccc1 [Butyl benzoate]

>  <reported>
1.4

$$$$
>  <molecule>
C#CCOC(=O)[C@@H](C)Oc1ccc(Oc2ncc(Cl)cc2F)cc1

>  <reported>
1.37

$$$$
>  <molecule>
CCCCOC(=O)[C@@H](C)Oc1ccc(Oc2ccc(C(F)(F)F)cn2)cc1

>  <reported>
0.832

$$$$
>  <molecule>
CC(C)C(=O)OCC(C)(C)C(OC(=O)C(C)C)C(C)C (stereo not drawn) [2,2,4-Trimethyl-1,3-pentanediol diisobutyrate]

>  <reported>
0.92

$$$$

----------
Tested on: HEK293T (UBE3A T485A transfected, BAR Wnt reporter)
protocol.description: Wnt reporter firefly/Renilla luciferase ratio relative to plate median (fold (linear ratio)); higher = more Wnt/beta-catenin reporter activation
protocol.conditions: concentration: 100 uM; 24 h
Over roughly 1,100 compounds, “Wnt reporter firefly/Renilla luciferase ratio relative to plate median” has its median near 1.1; the highest 2% begin near 1.6. This excerpt belongs to a sample that is enriched for the highest values.
Classify as follows. Reported Wnt reporter firefly/Renilla luciferase ratio greater than or equal to 1: yes (1). Reported Wnt reporter firefly/Renilla luciferase ratio below: no (0).

>  <compound>
Oc1ccc(O)cc1 [Hydroquinone]

>  <label.class>
no (0)

$$$$
>  <compound>
CC(=O)OCCC(C)C [3-Methylbutyl acetate]

>  <label.class>
yes (1)

$$$$
>  <compound>
CC(C)C(=O)OCC(C)(C)C(OC(=O)C(C)C)C(C)C (stereo not given) [2,2,4-Trimethyl-1,3-pentanediol diisobutyrate]

>  <label.class>
yes (1)

$$$$
>  <compound>
CC(C)(c1cc(Br)c(O)c(Br)c1)c1cc(Br)c(O)c(Br)c1 [3,3',5,5'-Tetrabromobisphenol A]

>  <label.class>
no (0)

$$$$
>  <compound>
CCOC(=O)COc1ccc2c(c1)CC(NCC(O)c1cccc(Cl)c1)CC2.Cl (stereo not given)

>  <label.class>
yes (1)

$$$$
>  <compound>
COc1ccc(S(=O)(=O)N2C(=O)[C@@](c3ccccc3OC)(N3C[C@H](O)C[C@H]3C(=O)N(C)C)c3cc(Cl)ccc32)c(OC)c1 [Nelivaptan]

>  <label.class>
no (0)

$$$$
>  <compound>
CC(C)=CCCC(C)CCO (stereo not given) [Citronellol]

>  <label.class>
yes (1)

$$$$
>  <compound>
CCCCC(CC)CO (stereo not given) [2-Ethyl-1-hexanol]

>  <label.class>
no (0)

$$$$
>  <compound>
CC(=O)[C@@]1(O)CC[C@H]2[C@@H]3CCC4=CC(=O)CC[C@]4(C)[C@H]3CC[C@@]21C [17alpha-Hydroxyprogesterone]

>  <label.class>
no (0)

$$$$
>  <compound>
CCCCCCCCCCCCc1ccccc1S(=O)(=O)O [Dodecylbenzenesulfonic acid]

>  <label.class>
yes (1)

$$$$
>  <compound>
COC(=O)c1ccccc1C(=O)O [Monomethyl phthalate]

>  <label.class>
yes (1)

$$$$
>  <compound>
CCCCCCC(=O)OCC [Ethyl heptanoate]

>  <label.class>
yes (1)

$$$$
>  <compound>
O=C([O-])c1[nH]n(-c2ccc(S(=O)(=O)[O-])cc2)c(=O)c1/N=N/c1ccc(S(=O)(=O)[O-])cc1.[Na+].[Na+].[Na+] [FD&C Yellow 5]

>  <label.class>
yes (1)

$$$$
>  <compound>
CCCCOC(=O)CCCCCCCCC(=O)OCCCC [Dibutyl decanedioate]

>  <label.class>
yes (1)

$$$$
>  <compound>
CCCCC(CC)COC(=O)CCCCCCCCC(=O)OCC(CC)CCCC (stereo not given) [Bis(2-ethylhexyl) decanedioate]

>  <label.class>
yes (1)

$$$$
